# experimental_system: Integrin alpha-V/beta-3 (Homo sapiens, UniProt P05106+P06756)
# Sequence (P05106 27-788 limits assumed): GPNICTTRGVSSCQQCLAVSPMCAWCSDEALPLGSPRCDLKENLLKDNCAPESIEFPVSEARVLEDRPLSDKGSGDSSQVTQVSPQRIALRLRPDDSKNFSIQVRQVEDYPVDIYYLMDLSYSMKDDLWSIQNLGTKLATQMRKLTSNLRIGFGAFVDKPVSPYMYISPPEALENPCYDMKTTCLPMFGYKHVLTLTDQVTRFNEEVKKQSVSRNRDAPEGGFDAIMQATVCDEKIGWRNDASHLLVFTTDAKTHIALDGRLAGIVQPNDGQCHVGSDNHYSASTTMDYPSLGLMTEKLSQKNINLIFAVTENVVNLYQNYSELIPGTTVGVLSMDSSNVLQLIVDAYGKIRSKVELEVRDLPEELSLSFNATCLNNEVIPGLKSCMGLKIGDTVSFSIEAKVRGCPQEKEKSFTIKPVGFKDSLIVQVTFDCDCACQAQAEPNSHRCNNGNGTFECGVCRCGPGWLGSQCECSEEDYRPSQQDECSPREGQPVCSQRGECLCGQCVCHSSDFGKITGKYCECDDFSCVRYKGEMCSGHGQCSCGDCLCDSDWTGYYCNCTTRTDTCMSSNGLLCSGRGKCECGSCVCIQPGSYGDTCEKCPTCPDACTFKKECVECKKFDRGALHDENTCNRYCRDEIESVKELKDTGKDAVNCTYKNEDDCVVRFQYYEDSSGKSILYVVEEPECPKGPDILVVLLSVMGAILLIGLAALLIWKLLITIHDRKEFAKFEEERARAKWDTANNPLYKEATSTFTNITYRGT
# Sequence (P06756 31-889 limits assumed): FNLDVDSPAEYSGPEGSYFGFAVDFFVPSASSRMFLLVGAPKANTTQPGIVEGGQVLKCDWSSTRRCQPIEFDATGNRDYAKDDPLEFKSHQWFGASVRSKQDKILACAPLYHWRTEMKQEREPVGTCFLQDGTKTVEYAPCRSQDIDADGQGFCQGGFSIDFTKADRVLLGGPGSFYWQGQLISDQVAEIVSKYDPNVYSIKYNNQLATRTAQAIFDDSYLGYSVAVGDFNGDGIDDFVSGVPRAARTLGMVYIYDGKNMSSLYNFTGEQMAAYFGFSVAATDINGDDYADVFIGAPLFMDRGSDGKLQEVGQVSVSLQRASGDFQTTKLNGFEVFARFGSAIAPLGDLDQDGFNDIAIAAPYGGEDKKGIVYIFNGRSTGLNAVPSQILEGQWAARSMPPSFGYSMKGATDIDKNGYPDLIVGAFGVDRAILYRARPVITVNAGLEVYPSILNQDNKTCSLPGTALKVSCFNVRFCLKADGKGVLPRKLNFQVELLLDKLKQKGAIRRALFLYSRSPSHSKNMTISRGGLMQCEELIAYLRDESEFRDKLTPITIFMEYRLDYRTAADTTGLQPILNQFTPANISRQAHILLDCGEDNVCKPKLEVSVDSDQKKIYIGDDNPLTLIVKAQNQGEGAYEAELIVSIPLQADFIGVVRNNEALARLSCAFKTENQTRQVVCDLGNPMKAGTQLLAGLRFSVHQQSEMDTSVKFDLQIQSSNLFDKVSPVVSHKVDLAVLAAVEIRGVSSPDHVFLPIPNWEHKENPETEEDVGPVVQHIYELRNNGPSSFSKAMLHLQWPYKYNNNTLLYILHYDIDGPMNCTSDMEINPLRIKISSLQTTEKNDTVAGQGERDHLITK
# Sequence (P06756 891-1048 limits assumed): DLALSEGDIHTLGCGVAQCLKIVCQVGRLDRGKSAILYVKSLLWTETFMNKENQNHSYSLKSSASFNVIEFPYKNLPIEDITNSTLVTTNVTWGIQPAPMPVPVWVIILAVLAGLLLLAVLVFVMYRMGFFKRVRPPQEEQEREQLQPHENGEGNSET
# experiment_notes: Inhibition of vitronectin binding to human integrin alphaVbeta3 measured after 4 hrs by ELISA
# Type: protein-complex assay
observation_type: IC50

>>> value("C/C1=C\\[C@@H](Cc2ccccc2)NC(=O)[C@H](CC(=O)O)NC(=O)CNC(=O)[C@H](CCCNC(=N)N)NC(=O)[C@@H]1C(C)C")
"2.4 nM"

// next item, IC50 requested
Query the reported IC50 for Integrin alpha-V/beta-3 (Homo sapiens, UniProt P05106+P06756); item: `CC(C)[C@@H]1/C=C/[C@@H](Cc2ccccc2)NC(=O)[C@H](CC(=O)O)NC(=O)CNC(=O)[C@H](CCCNC(=N)N)NC1=O`
3.6 nM
